meta.source: PubChem BioAssay (Tox21)

Experiment: qHTS RealTime-Glo MT Cell Viability Assay in HepG2 cells - 24 hour (AID 1224867); note: nearly all actives have a fitted effect of over 50% in size
Conditions: RealTime-Glo luminescence; series mostly up to 76.8 µM
Results filed as inconclusive are left out. Activity calls are given as the source filed them. Calls come from the whole dose curve; as a rule, active = well fitted cell-killing curve with a large enough effect in the repeat runs; inconclusive = weak or mixed curves; inactive = flat fitted curve, though single readings scatter.
Choose the fitting class; nothing outside active, inactive is accepted.

Qu. Field: outcome | Entry: "COc1ccc([N+](=O)[O-])cc1O"
Ans. inactive

Qu. And "CCOP(=S)(OCC)SCS(=O)(=O)CC" ?
Ans. inactive

Qu. And "CC(=O)OC1(c2ccccc2)CCN(CCc2ccccc2)CC1" ?
Ans. inactive

Qu. And CC(C)(C)C(O)C(Oc1ccc(-c2ccccc2)cc1)n1cncn1 (stereo not given) ?
Ans. inactive

Qu. And "FC(F)(F)c1cccc(C2=CCN(CCc3ccc4ccccc4c3)CC2)c1" ?
Ans. inactive

Qu. And CC(C)CC(C)N (stereo not given) ?
Ans. inactive

Qu. And COC(=O)N(C(=O)N1COC2(C(=O)OC)Cc3cc(Cl)ccc3C2=N1)c1ccc(OC(F)(F)F)cc1 (stereo not given) ?
Ans. inactive

Qu. And "CC(C)(C)OO" ?
Ans. inactive

Qu. And "CC(C)(O)c1cnn2c(-c3ccc(F)c(-c4c(F)cccc4C#N)c3)cnc2n1" ?
Ans. inactive

Qu. And "CCCCN(CCCC)C(=S)[S-].CCCCN(CCCC)C(=S)[S-].[Zn+2]" ?
Ans. active

Qu. And "CCOC(=O)CC(=O)CCl" ?
Ans. inactive

Qu. And "CCN(CC)C(=S)[S-].CCN(CC)C(=S)[S-].[Zn+2]" ?
Ans. active

Qu. And "ClCc1ccc(Cl)cc1Cl" ?
Ans. inactive

Qu. And "CCN" ?
Ans. inactive

Qu. And "Oc1ccc(C(=C(Cl)Cl)c2ccc(O)cc2)cc1" ?
Ans. inactive

Qu. And "CC(=O)[O-].[Tl+]" ?
Ans. inactive

Qu. And "C=CC(=O)OCC(COC(=O)C=C)(COC(=O)C=C)COC(=O)C=C" ?
Ans. active

Qu. And "OC(c1ccc(Cl)cc1)(c1ccc(Cl)cc1)C(Cl)(Cl)Cl" ?
Ans. inactive

Qu. And CCOP(=S)(OCC)OC(Cl)C(Cl)(Cl)Cl (stereo not given) ?
Ans. inactive

Qu. And "Clc1ccc(C(Cl)(Cl)Cl)c(Cl)c1" ?
Ans. inactive

Qu. And "CC(C)N1C(=O)N(c2ccccc2)CSC1=NC(C)(C)C" ?
Ans. inactive

Qu. And "CC(C)CCCCCCCOP(=O)(Oc1ccccc1)Oc1ccccc1" ?
Ans. inactive

Qu. And "O=C(O)COc1nc(Cl)c(Cl)cc1Cl" ?
Ans. inactive

Qu. And C[C@H]1CC[C@@H]2[C@@H](C)[C@H]3[C@H](C[C@H]4[C@@H]5CC=C6CC(O[C@@H]7O[C@H](CO)[C@H](O)[C@H](O[C@@H]8O[C@H](CO)[C@@H](O)[C@H](O)[C@H]8O)[C@H]7O[C@H]7O[C@@H](C)[C@H](O)[C@@H](O)[C@H]7O)CC[C@]6(C)[C@H]5CC[C@]34C)N2C1 (stereo not given in full) ?
Ans. active

Qu. And "O=C(Cl)c1ccc(Cl)cc1" ?
Ans. inactive
